System: Enterococcus sp.
Assay: in vitro antibacterial evaluation, MIC by broth dilution
Format: cell-based
Details: broth dilution, inoculum 5×10^5 CFU/mL, 18 hours at 35° C.; strain GC 4553

{"columns": ["COMPOUND", "MEASUREMENT_UNIT", "MIC Enterococcus faecalis (GC 4553)"],
 "data": [
  ["CC(c1ccccc1)C1NC(=O)CNC(=O)C(CO)NC(=O)C(C(O)C2CNC(=N)N2C2OC(CO)C(O)C(O)C2O)NC(=O)C(C(O)C2CNC(=N)N2)NC(=O)C(Cc2ccc(OC3OC(CO)C(OC4OC5COC(c6cccc(-c7ccccc7)c6)OC5C(O)C4O)C(O)C3O)cc2)NC1=O (stereo not shown)", "µg/mL", 2],
  ["CC(c1ccccc1)C1NC(=O)CNC(=O)C(CO)NC(=O)C(C(O)C2CNC(=N)N2C2OC(CO)C(O)C(O)C2O)NC(=O)C(C(O)C2CNC(=N)N2)NC(=O)C(Cc2ccc(OC3OC(CO)C(OC4OC5COC(c6ccc(Oc7ccc(C(C)(C)C)cc7)cc6)OC5C(O)C4O)C(O)C3O)cc2)NC1=O (stereo not shown)", "µg/mL", 1],
  ["CC(=O)n1cc(C2OCC3OC(OC4C(CO)OC(Oc5ccc(CC6NC(=O)C(C(C)c7ccccc7)NC(=O)CNC(=O)C(CO)NC(=O)C(C(O)C7CNC(=N)N7C7OC(CO)C(O)C(O)C7O)NC(=O)C(C(O)C7CNC(=N)N7)NC6=O)cc5)C(O)C4O)C(O)C(O)C3O2)c2ccccc21 (stereo not shown)", "µg/mL", 16]
]}

###

Tested on: Enterococcus sp.
Assay: in vitro antibacterial evaluation, MIC by broth dilution
Format: cell-based
Conditions: broth dilution, 18 hours at 35° C.; strain GC 4553

{"columns": ["MOLECULE", "READING_QUALIFIER", "MIC Enterococcus faecalis (GC 4553), µg/mL"],
 "data": [
  ["CC(c1ccc(F)cc1)C1NC(=O)CNC(=O)C(CO)NC(=O)C(C(O)C2CNC(=N)N2C2OC(CO)C(O)C(O)C2O)NC(=O)C(C(O)C2CNC(=N)N2)NC(=O)C(Cc2ccc(OC3OC(CO)C(OC4OC(CO)C(O)C(O)C4O)C(O)C3O)cc2)NC1=O (stereo not shown) [Example 261a]", ">", 64],
  ["N=C1NCC(C(O)C2NC(=O)C(Cc3ccc(OC4OC(CO)C(OC5OC(CO)C(O)C6OC7(OC56)C5CC6CC(C5)CC7C6)C(O)C4O)cc3)NC(=O)C(CC3CCCCC3)NC(=O)CNC(=O)C(CO)NC(=O)C(C(O)C3CNC(=N)N3C3OC(CO)C(O)C(O)C3O)NC2=O)N1 (stereo not shown) [Example 106a]", "=", 4],
  ["CCC(CC)C1OCC2OC(OC3C(CO)OC(Oc4ccc(CC5NC(=O)C(C(C)c6ccccc6)NC(=O)CNC(=O)C(CO)NC(=O)C(C(O)C6CNC(=N)N6C6OC(CO)C(O)C(O)C6O)NC(=O)C(C(O)C6CNC(=N)N6)NC5=O)cc4)C(O)C3O)C(O)C(O)C2O1 (stereo not shown) [Example 116]", "=", 2],
  ["CC(C)CC(=O)OC1C(OC2C(CO)OC(Oc3ccc(CC4NC(=O)C(C(C)c5cccc(F)c5)NC(=O)CNC(=O)C(CO)NC(=O)C(C(O)C5CNC(=N)N5C5OC(CO)C(O)C(O)C5O)NC(=O)C(C(O)C5CNC(=N)N5)NC4=O)cc3)C(O)C2O)OC(CO)C(O)C1O (stereo not shown) [Example 264a]", ">", 64],
  ["CC(c1ccccc1)C1NC(=O)CNC(=O)C(CO)NC(=O)C(CC2CNC(=N)N2C2OC(CO)C(O)C(O)C2O)NC(=O)C(CC2CNC(=N)N2)NC(=O)C(Cc2ccc(OC3OC(CO)C(OC4OC(CO)C(OCc5ccc(OCc6ccccc6)cc5)C(O)C4O)C(O)C3O)cc2)NC1=O (stereo not shown) [Example 246a]", "=", 2],
  ["CC(c1ccccc1)C1NC(=O)CNC(=O)C(CO)NC(=O)C(C(O)C2CNC(=N)N2C2OC(CO)C(O)C(O)C2O)NC(=O)C(C(O)C2CNC(=N)N2)NC(=O)C(Cc2ccc(OC3OC(CO)C(OC4OC5COC(C67CC8CC(CC(C8)C6)C7)OC5C(O)C4O)C(O)C3O)cc2)NC1=O (stereo not shown) [Example 127]", "=", 4],
  ["COc1ccc2cc(COC3C(CO)OC(OC4C(CO)OC(Oc5ccc(CC6NC(=O)C(C(C)c7ccccc7)NC(=O)CNC(=O)C(CO)NC(=O)C(CC7CNC(=N)N7C7OC(CO)C(O)C(O)C7O)NC(=O)C(CC7CNC(=N)N7)NC6=O)cc5)C(O)C4O)C(O)C3O)ccc2c1 (stereo not shown) [Example 245a]", "=", 4]
]}
